# test_name: Pharmacokinetics and tissue distribution of compounds in rats
# Format: in vivo
# condition_details: male, SD; plasma; rat, PO 5 mg/kg; read-out: Peak concentration Cmax
Cmax listing for selected compounds.

# compound, Cmax (ng/mL)
rows = [
    ("Cc1cc(Nc2cc(C)[nH]n2)nc(-c2ccc(N3CC4CC(C3)N4Cc3ccc(-n4cc(F)cn4)nc3)nc2)n1 [Compound 17]", 772),
    ("CO[C@]1(C(=O)N[C@@H](C)c2ccc(-n3cc(F)cn3)nc2)CC[C@H](c2nc(C)cc(Nc3cc(C)[nH]n3)n2)CC1 [BLU-667, reference compound]", 1490),
]

###

Here the recorded inhibition at 0.01 µM is given for each entry.
# system: RET-V804M (Homo sapiens, UniProt P07949, V804M)
# Sequence (P07949 29-1114 V804M): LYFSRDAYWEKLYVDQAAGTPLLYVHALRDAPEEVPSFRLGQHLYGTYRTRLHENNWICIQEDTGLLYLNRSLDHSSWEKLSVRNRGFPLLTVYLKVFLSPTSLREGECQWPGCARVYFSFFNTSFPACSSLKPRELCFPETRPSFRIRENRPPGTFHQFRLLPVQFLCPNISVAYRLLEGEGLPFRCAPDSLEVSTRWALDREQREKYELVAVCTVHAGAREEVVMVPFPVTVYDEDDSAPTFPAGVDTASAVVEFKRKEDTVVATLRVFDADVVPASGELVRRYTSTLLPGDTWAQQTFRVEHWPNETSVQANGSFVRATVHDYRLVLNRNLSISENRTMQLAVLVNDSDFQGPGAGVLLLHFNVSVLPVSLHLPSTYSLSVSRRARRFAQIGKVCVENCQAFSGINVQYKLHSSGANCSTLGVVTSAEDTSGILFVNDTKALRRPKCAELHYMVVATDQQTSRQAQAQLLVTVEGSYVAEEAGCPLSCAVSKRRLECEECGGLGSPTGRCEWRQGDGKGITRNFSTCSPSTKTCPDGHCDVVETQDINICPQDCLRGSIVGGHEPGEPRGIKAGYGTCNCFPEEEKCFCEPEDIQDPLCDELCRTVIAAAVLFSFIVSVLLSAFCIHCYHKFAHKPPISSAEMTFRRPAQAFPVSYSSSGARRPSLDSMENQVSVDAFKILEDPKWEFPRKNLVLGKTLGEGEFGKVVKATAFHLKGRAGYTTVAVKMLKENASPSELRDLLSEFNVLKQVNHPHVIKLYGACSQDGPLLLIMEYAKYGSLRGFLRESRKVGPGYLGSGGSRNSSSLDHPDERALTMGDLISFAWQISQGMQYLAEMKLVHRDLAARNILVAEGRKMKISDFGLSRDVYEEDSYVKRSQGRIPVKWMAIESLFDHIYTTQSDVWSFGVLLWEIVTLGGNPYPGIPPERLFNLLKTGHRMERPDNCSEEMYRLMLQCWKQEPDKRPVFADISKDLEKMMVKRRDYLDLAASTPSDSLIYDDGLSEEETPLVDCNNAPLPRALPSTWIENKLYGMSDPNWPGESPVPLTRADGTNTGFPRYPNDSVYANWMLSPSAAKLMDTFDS
# test_name: RET inhibition experiment (HTRF KinEASE-TK kit), mutant RET-V804M
# Format: biochemical
# condition_details: 10 nM (Table 2); read-out: Inhibition rate on RET-V804M

# compound, system, inhibition at 0.01 µM / %
rows = [
    ("Cc1cc(Nc2cc(C)[nH]n2)nc(-c2ccc(N3CC4CC(C3)N4Cc3ccc(-c4ccc(C)o4)nc3)nc2)n1 [Compound 133]", "RET-V804M (Homo sapiens, UniProt P07949, V804M)", 82),
    ("Cc1cc(Nc2cc(C)[nH]n2)nc(-c2ccc(N3CC4CC(C3)N4Cc3ccc(-c4cc(F)cnc4C)nc3)nc2)n1 [Compound 8]", "RET-V804M (Homo sapiens, UniProt P07949, V804M)", 46),
    ("Cc1cc(Nc2cc(C)[nH]n2)nc(-c2ccc(N3CC4CC(C3)N4Cc3ccc(F)cc3)nc2)n1 [Compound 83]", "RET-V804M (Homo sapiens, UniProt P07949, V804M)", 56),
    ("Cc1cc(Nc2cc(C)[nH]n2)nc(-c2ccc(N3CC4CC(C3)N4Cc3ccc(-n4ccc(CO)n4)nc3)nc2)n1 [Compound 137]", "RET-V804M (Homo sapiens, UniProt P07949, V804M)", 93),
    ("Cc1cc(Nc2cc(C)[nH]n2)nc(-c2ccc(N3CC4CC(C3)N4Cc3ccc(-n4nccc4OC4CC4)nc3)nc2)n1 [Compound 30]", "RET-V804M (Homo sapiens, UniProt P07949, V804M)", 88),
    ("Cc1cc(Nc2cc(C)[nH]n2)nc(-c2ccc(N3CC4CC(C3)N4Cc3ccc(-n4ccc(F)n4)nc3)nc2)n1 [Compound 63]", "RET-V804M (Homo sapiens, UniProt P07949, V804M)", 65),
    ("Cc1cnn(-c2ccc(CN3C4CC3CN(c3ccc(-c5nc(C)cc(Nc6cc(C)[nH]n6)n5)cn3)C4)cc2)c1 [Compound 88]", "RET-V804M (Homo sapiens, UniProt P07949, V804M)", 62),
    ("Cc1cc(Nc2cc(C)[nH]n2)nc(-c2ccc(N3CC4CC(C3)N4Cc3ccc(Cl)cn3)nc2)n1 [Compound 69]", "RET-V804M (Homo sapiens, UniProt P07949, V804M)", 56),
    ("Cc1cc(Nc2cc(C)[nH]n2)nc(-c2ccc(N3CC4CC(C3)N4C(=O)c3ccc(-n4cc(F)cn4)nc3)nc2)n1 [Compound 26]", "RET-V804M (Homo sapiens, UniProt P07949, V804M)", 83),
    ("Cc1cc(Nc2cc(C)[nH]n2)nc(-c2ccc(N3CC4CC(C3)N4Cc3ccc(-n4cc(F)cn4)nc3)nc2)c1 [Compound 6]", "RET-V804M (Homo sapiens, UniProt P07949, V804M)", 83),
    ("Cc1cc(Nc2cc(C)[nH]n2)nc(-c2ccc(N3CC4CC(C3)N4Cc3ccc(-n4ccc(F)n4)cc3)nc2)n1 [Compound 89]", "RET-V804M (Homo sapiens, UniProt P07949, V804M)", 70),
    ("Cc1cc(Nc2cc(C)[nH]n2)nc(-c2ccc(N3CC4CC(C3)N4Cc3ccc(-n4nccc4OC4CCC4)nc3)nc2)n1 [Compound 27]", "RET-V804M (Homo sapiens, UniProt P07949, V804M)", 87),
    ("Cc1cc(Nc2cc(C)[nH]n2)nc(-c2ccc(N3CC4CC(C3)N4C(C)c3ccc(-n4cccn4)nc3)nc2)n1 (single isomer, unassigned) [Compound 125-2]", "RET-V804M (Homo sapiens, UniProt P07949, V804M)", 82),
    ("Cc1cc(Nc2cc(C)[nH]n2)nc(-c2ccc(N3CC4CC(C3)N4Cc3ccc(-n4cnc(F)c4)nc3)nc2)n1 [Compound 64]", "RET-V804M (Homo sapiens, UniProt P07949, V804M)", 79),
]

###

# test_name: Pharmacokinetics and tissue distribution of compounds in rats
# Assay type: in vivo
# condition_details: male, SD; lung; rat, PO 5 mg/kg; read-out: Time to peak concentration Tmax
recorded_metric: Tmax (h)

# compound, assay_value
data = [
    ("Cc1cc(Nc2cc(C)[nH]n2)nc(-c2ccc(N3CC4CC(C3)N4Cc3ccc(-n4cc(F)cn4)nc3)nc2)n1 [Compound 17]", 2),
    ("CO[C@]1(C(=O)N[C@@H](C)c2ccc(-n3cc(F)cn3)nc2)CC[C@H](c2nc(C)cc(Nc3cc(C)[nH]n3)n2)CC1 [BLU-667, reference compound]", 0.5),
]

###

# system: RET-V804M (Homo sapiens, UniProt P07949, V804M)
# test_name: RET inhibition experiment (HTRF KinEASE-TK kit), mutant RET-V804M
# Assay type: biochemical
# condition_details: read-out: The IC50 (nM) for inhibiting V804M
recorded_metric: log10 IC50 (log10 of the value in nM)

# molecule, log10 IC50
rows = [
    ("Cc1cc(Nc2cc(C)[nH]n2)nc(-c2ccc(N3CC4CC(C3)N4Cc3ccc(-n4ccc(C5CC5)n4)nc3)nc2)n1 [Compound 120]", 0.96),
    ("Cc1cc(Nc2cc(C)[nH]n2)nc(-c2ccc(N3CC4CC(C3)N4Cc3ccc(-n4cc(Cl)c(C)n4)nc3)nc2)n1 [Compound 28]", 1.02),
    ("Cc1cc(Nc2cc(C)[nH]n2)nc(-c2ccc(N3CC4CC(C3)N4Cc3ccc(-n4cc(F)cn4)nc3)nc2)n1 [Compound 17]", 0.01),
    ("Cc1cc(Nc2cc(C)[nH]n2)nc(-c2ccc(N3CC4CC(C3)N4Cc3ccc(-n4cc(F)c(C5CC5)n4)nc3)nc2)n1 [Compound 124]", 1.03),
    ("Cc1cc(Nc2cc(C3CC3)[nH]n2)nc(-c2ccc(N3CC4CC(C3)N4Cc3ccc(-n4cc(F)cn4)nc3)nc2)n1 [Compound 10]", 0.60),
    ("Cc1cc(Nc2cc(C)[nH]n2)nc(-c2ccc(N3CC4CC(C3)N4Cc3ccc(-n4ncc(F)c4C)nc3)nc2)n1 [Compound 122]", 0.52),
    ("Cc1cnn(-c2ccc(CN3C4CC3CN(c3ccc(-c5nc(C)cc(Nc6cc(C)[nH]n6)n5)cn3)C4)cn2)c1 [Compound 62]", 0.66),
]

###

# test_name: Pharmacokinetics and tissue distribution of compounds in rats
# Assay type: in vivo
# condition_details: male, SD; plasma; rat, PO 5 mg/kg; read-out: AUC AUClast
Entries and their AUC(0-t) values follow.
recorded_metric: AUC(0-t)

# compound, assay_value
rows = [
    ("Cc1cc(Nc2cc(C)[nH]n2)nc(-c2ccc(N3CC4CC(C3)N4Cc3ccc(-n4cc(F)cn4)nc3)nc2)n1", "6790 ng·h/mL"),
    ("CO[C@]1(C(=O)N[C@@H](C)c2ccc(-n3cc(F)cn3)nc2)CC[C@H](c2nc(C)cc(Nc3cc(C)[nH]n3)n2)CC1 [BLU-667, reference compound]", "8650 ng·h/mL"),
]

###

Item-by-item account of inhibition at 0.1 µM
# system: RET-V804M (Homo sapiens, UniProt P07949, V804M)
# test_name: RET inhibition experiment (HTRF KinEASE-TK kit), mutant RET-V804M
# Format: biochemical
# condition_details: 100 nM (Table 2); read-out: Inhibition rate on RET-V804M
recorded_metric: inhibition at 0.1 µM (%)

# molecule, system, assay_value
measured = [
    ("COc1ccc(C(=O)N2CCN(c3ccc(-c4nc(C)cc(Nc5cc(C)[nH]n5)n4)cn3)CC2)cn1 [Compound 110]", "RET-V804M (Homo sapiens, UniProt P07949, V804M)", 62),
    ("COc1ccc(F)c(CN2C3CC2CN(c2ccc(-c4nc(C)cc(Nc5cc(C)[nH]n5)n4)cn2)C3)c1 [Compound 96]", "RET-V804M (Homo sapiens, UniProt P07949, V804M)", 84),
    ("COc1ccc(CN2C3CC2CN(c2ccc(-c4nc(C)cc(Nc5cc(C)[nH]n5)n4)cn2)C3)nc1 [Compound 67]", "RET-V804M (Homo sapiens, UniProt P07949, V804M)", 82),
    ("Cc1cc(Nc2cc(C)[nH]n2)nc(-c2ccc(N3CC4CC(C3)N4Cc3cncc(F)c3)nc2)n1 [Compound 98]", "RET-V804M (Homo sapiens, UniProt P07949, V804M)", 63),
    ("COc1ccc(CN2CCN(c3ccc(-c4nc(C)cc(Nc5cc(C)[nH]n5)n4)cn3)CC2)cn1 [Compound 49]", "RET-V804M (Homo sapiens, UniProt P07949, V804M)", 75),
    ("Cc1cc(Nc2cc(C)[nH]n2)nc(-c2ccc(N3CC4CC(C3)N4Cc3ccc(-n4cc(CO)cn4)nc3)nc2)n1 [Compound 127]", "RET-V804M (Homo sapiens, UniProt P07949, V804M)", 84),
    ("Cc1cc(Nc2cc(C)[nH]n2)nc(-c2ccc(N3CC4CC(C3)N4Cc3ccc(C#N)nc3)nc2)n1 [Compound 117]", "RET-V804M (Homo sapiens, UniProt P07949, V804M)", 76),
    ("Cc1cc(Nc2cc(C)[nH]n2)nc(-c2ccc(N3CC4CC(C3)N4Cc3cnc(C)s3)nc2)n1 [Compound 15]", "RET-V804M (Homo sapiens, UniProt P07949, V804M)", 91),
    ("COc1cncc(CN2C3CC2CN(c2ccc(-c4nc(C)cc(Nc5cc(C)[nH]n5)n4)cn2)C3)c1 [Compound 18]", "RET-V804M (Homo sapiens, UniProt P07949, V804M)", 70),
    ("Cc1ccc(CN2C3CC2CN(c2ccc(-c4nc(C)cc(Nc5cc(C)[nH]n5)n4)cn2)C3)cn1 [Compound 16]", "RET-V804M (Homo sapiens, UniProt P07949, V804M)", 92),
    ("Cc1cc(Nc2cc(C)[nH]n2)nc(-c2ccc(N3CC4CC(C3)N4Cc3cnccc3C)nc2)n1 [Compound 21]", "RET-V804M (Homo sapiens, UniProt P07949, V804M)", 49),
    ("COc1ccc(CC(=O)N2CCN(c3ccc(-c4nc(C)cc(Nc5cc(C)[nH]n5)n4)cn3)CC2)cn1 [Compound 111]", "RET-V804M (Homo sapiens, UniProt P07949, V804M)", 46),
    ("Cc1cc(Nc2cc(C)[nH]n2)nc(-c2ccc(N3CC4CC(C3)N4Cc3ccc(-n4cc(CF)cn4)nc3)nc2)n1 [Compound 126]", "RET-V804M (Homo sapiens, UniProt P07949, V804M)", 82),
    ("Cc1cc(Nc2cc(C)[nH]n2)nc(-c2ccc(N3CC4CC(C3)N4Cc3ccc(C(F)(F)F)nc3)nc2)n1 [Compound 118]", "RET-V804M (Homo sapiens, UniProt P07949, V804M)", 74),
]
